Each item that follows carries a reported self-splicing fitness (ln).
protocol_details: self-splicing fitness, log relative to wild type (ln ratio); higher = more splicing; Tetrahymena group I intron in knt gene, E. coli kanamycin selection, DiMSum; sequences stand for … in CUCUCU…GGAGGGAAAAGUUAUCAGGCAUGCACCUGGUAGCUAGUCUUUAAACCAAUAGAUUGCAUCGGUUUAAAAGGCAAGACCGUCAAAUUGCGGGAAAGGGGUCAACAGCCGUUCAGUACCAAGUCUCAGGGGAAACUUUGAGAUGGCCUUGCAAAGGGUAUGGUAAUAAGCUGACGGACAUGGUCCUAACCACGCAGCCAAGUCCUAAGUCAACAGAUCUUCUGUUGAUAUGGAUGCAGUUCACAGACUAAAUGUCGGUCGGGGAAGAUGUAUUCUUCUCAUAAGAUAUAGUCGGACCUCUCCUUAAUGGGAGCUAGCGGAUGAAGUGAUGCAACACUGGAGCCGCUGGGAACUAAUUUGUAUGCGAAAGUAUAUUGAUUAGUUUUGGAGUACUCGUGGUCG;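 also: selection with 25 µg/mL kanamycin versus none on LB agar overnight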
run_conditions: 37 °C
Just the number, please.

construct_sequence | self-splicing fitness (ln)
UGAAAGCAAUAUUACGUACA | 0.0429

Input: Output self-splicing fitness (ln) of AUCAAGCAAUAUUACGGUCU
Output: -0.196

Input: Output self-splicing fitness (ln) of CGGCAGCAAUAUUACGCAUC
Output: -2.39

Input: Output self-splicing fitness (ln) of UGUUAGCAAUAUUACGGGCA
Output: 0.194

Input: Output self-splicing fitness (ln) of ACGCAGCAAUAUUACGCGGG
Output: -0.419

Data origin: the supplement of paper PMC7877785
